- System: Acanthocheilonema viteae
- Protocol Notes: Effect of compound on ATP content in Acanthocheilonema viteae at 10 uM concentration (p>0.05)
- Assay type: functional
Listing of entries alongside the reported ATP content.

N#CC(C#N)=CN(CCO)CCO :: 49.3 pM (mg of protein)-1
CCN(CC)C(=O)N1CCN(C)CC1.O=C(O)CC(O)(CC(=O)O)C(=O)O [DIETHYLCARBAMAZINE CITRATE] :: 55.6 pM (mg of protein)-1
N#CC(C#N)=CNCCO :: 47.8 pM (mg of protein)-1

Proceeding to the next molecule to report its ATP content.
I am curious: what ATP content value has been reported for N#CC(C#N)=CNc1ccccc1 ? 53.5 pM (mg of protein)-1
